For each of the compounds below, state its IC50.

Result for CC(/C=C/c1ccc(C(=O)N2CC[C@@H](NC(=O)c3cc(-c4cnn(C)c4)cnc3N)C2)cc1)N1CCN(C)CC1 (stereo partly shown) , tested on human c-MER catalytic domain (Homo sapiens (Human), UniProt Q12866), IC50: < 10 nM

Result for Cn1cc(-c2cnc(N)c(C(=O)NC3CN(C(=O)c4ccc(-c5ccccc5)cc4)C3)c2)cn1 , tested on human c-MER catalytic domain (Homo sapiens (Human), UniProt Q12866), IC50: > 1000 nM

Result for Cn1cc(-c2cnc(N)c(C(=O)N[C@@H]3CCN(C(=O)c4cccc(-c5ccoc5)c4)C3)c2)cn1 , tested on human c-MER catalytic domain (Homo sapiens (Human), UniProt Q12866), IC50: > 1000 nM

Result for Nc1ncc(-c2ccc(N3CCOCC3)cc2)cc1C(=O)N[C@@H]1CCN(C(=O)c2ccc(-c3ccccc3Cl)cc2)C1 , tested on human c-MER catalytic domain (Homo sapiens (Human), UniProt Q12866), IC50: 10 to 100 nM

Result for Cn1cc(-c2cnc(N)c(C(=O)N[C@@H]3CCN(C(=O)c4nn(C)c5ccccc45)C3)c2)cn1 , tested on human c-MER catalytic domain (Homo sapiens (Human), UniProt Q12866), IC50: 100 to 1000 nM

Result for CC(=O)N1CCC(n2cc(-c3cnc(N)c(C(=O)N[C@@H]4CCN(Cc5ccccc5)C4)c3)cn2)CC1 , tested on human c-MER catalytic domain (Homo sapiens (Human), UniProt Q12866), IC50: 100 to 1000 nM

Result for Cn1cc(-c2cnc(N)c(C(=O)N[C@@H]3CCN(Cc4ccc(F)c(C5=CCNCC5)c4)C3)c2)cn1 , tested on human c-MER catalytic domain (Homo sapiens (Human), UniProt Q12866), IC50: > 1000 nM
